Data provenance: paper PMC8150775

Target sequence: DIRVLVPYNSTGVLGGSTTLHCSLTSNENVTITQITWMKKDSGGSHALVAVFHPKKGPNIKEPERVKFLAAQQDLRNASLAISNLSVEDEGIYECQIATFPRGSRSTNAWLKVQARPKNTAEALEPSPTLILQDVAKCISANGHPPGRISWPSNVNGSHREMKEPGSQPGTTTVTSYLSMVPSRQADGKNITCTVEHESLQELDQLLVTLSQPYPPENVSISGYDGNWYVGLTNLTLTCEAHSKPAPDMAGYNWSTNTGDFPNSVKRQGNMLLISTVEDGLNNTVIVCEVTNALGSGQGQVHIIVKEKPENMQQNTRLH
measuredAttribute: pKd
Units for pKd: none; it is -log10 of a concentration expressed in mol/L.

[in] Dear colleague, I am looking for the recorded pKd of the following compound: CC1=C(C(=O)OC(C)C)C(c2cccc([N+](=O)[O-])c2)C(C(=O)OC2CN(C(c3ccccc3)c3ccccc3)C2)=C(N)N1 (stereo not shown) [Azelnidipine]
[out] 4.88

* * *

- measurementTarget: human CD47/SIRPα (Homo sapiens, UniProt P78324)
- Construct: CD47 on CHOK1-hCD47 cells (lenti-viral transfection)
- measurementDescription: Blocking assay, human SIRPα protein binding to CHOK1-hCD47 cells
- experimentalConditions: concentration gradient; read-out: IC50, blocking human CD47/SIRPα (hSirpα binding)
measuredAttribute: IC50

[in] Dear colleague, I am looking for the recorded IC50 of the following molecule: CC1=C(C(=O)OC(C)C)C(c2cccc([N+](=O)[O-])c2)C(C(=O)OC2CN(C(c3ccccc3)c3ccccc3)C2)=C(N)N1 (stereo not shown)
[out] ~36 µM

* * *

- measurementTarget: human TIGIT/PVR (Homo sapiens, UniProt P15151)
- Construct: purchased ACRO Biosystem CD5-H82F6; host or cells: soluble protein purchased; TIGIT on CHOK1-hTIGIT cells (lenti-viral transfection)
- Sequence (P15151 21-343 limits assumed): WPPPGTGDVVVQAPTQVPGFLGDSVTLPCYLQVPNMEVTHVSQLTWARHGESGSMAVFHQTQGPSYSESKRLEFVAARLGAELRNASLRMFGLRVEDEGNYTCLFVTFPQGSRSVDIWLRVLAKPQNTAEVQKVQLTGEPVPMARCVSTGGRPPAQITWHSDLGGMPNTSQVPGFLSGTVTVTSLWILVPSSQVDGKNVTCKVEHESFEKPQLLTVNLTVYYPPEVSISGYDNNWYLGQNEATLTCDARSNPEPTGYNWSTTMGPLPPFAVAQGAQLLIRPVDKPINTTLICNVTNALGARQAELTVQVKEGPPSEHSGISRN
- measurementDescription: Blocking assay, human PVR protein binding to CHOK1-hTIGIT cells
- experimentalConditions: concentration gradient; read-out: IC50, blocking human TIGIT/PVR (hPVR binding)
measuredAttribute: IC50

[in] Recall the recorded IC50 for CC1=C(C(=O)OC(C)C)C(c2cccc([N+](=O)[O-])c2)C(C(=O)OC2CN(C(c3ccccc3)c3ccccc3)C2)=C(N)N1 (stereo not shown) with human TIGIT/PVR (Homo sapiens, UniProt P15151) and state it.
[out] ~28 µM

* * *

- measurementTarget: human PVR (Homo sapiens)
measuredAttribute: pKd
Quick note: pKd means taking -log10 of the concentration in moles per liter.

[in] For the record CC1=C(C(=O)OC(C)C)C(c2cccc([N+](=O)[O-])c2)C(C(=O)OC2CN(C(c3ccccc3)c3ccccc3)C2)=C(N)N1 (stereo not shown) , what value of pKd is listed for human PVR (Homo sapiens)?
[out] 5.19

* * *

- measurementTarget: human SIRPα (Homo sapiens, UniProt P78324)
- Sequence (P78324 31-504): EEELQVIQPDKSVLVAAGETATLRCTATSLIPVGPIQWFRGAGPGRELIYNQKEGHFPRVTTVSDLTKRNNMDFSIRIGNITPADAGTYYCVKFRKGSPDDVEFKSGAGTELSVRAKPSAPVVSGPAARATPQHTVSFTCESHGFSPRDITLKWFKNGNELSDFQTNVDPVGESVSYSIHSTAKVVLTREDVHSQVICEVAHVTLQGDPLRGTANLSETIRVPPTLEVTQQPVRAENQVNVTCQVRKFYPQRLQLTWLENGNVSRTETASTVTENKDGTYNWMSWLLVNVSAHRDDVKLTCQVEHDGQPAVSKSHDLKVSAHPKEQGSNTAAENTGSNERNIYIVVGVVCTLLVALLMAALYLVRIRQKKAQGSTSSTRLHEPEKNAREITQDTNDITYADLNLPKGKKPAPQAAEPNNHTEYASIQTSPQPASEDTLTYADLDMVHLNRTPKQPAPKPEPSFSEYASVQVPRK
measuredAttribute: Kd (µM)
// units = µM; emit number, no label

[in] Kd of CC1=C(C(=O)OC(C)C)C(c2cccc([N+](=O)[O-])c2)C(C(=O)OC2CN(C(c3ccccc3)c3ccccc3)C2)=C(N)N1 (stereo not shown) [Azelnidipine] on human SIRPα (Homo sapiens, UniProt P78324)?
[out] 5.37

* * *

- measurementTarget: mouse SIRPα (Mus musculus)
- Construct: His; purchased Sino Biological 50956-M08H
- Sequence (P97797 32-513): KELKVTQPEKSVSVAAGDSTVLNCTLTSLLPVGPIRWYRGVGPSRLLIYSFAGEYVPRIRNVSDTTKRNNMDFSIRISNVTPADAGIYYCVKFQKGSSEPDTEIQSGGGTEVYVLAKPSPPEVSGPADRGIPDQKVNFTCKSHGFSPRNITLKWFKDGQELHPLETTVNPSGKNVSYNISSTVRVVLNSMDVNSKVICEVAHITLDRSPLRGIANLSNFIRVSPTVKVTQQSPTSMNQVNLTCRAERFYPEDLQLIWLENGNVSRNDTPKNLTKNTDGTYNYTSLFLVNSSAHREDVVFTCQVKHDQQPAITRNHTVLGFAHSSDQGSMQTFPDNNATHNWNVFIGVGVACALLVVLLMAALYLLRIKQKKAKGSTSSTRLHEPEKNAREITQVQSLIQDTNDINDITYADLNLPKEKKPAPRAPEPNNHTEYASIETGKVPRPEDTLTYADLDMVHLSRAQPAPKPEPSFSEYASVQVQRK
- measurementDescription: Microscale thermophoresis (MST) binding
measuredAttribute: Kd (µM)
State the answer as a number, implicitly in µM.

[in] Enter reported Kd observed with mouse SIRPα (Mus musculus) for CC1=C(C(=O)OC(C)C)C(c2cccc([N+](=O)[O-])c2)C(C(=O)OC2CN(C(c3ccccc3)c3ccccc3)C2)=C(N)N1 (stereo not shown)
[out] 3.75

* * *

- measurementTarget: mouse TIGIT/PVR (Mus musculus, UniProt F6V4I7)
- Construct: TIGIT on CHOK1-mTIGIT cells (lenti-viral transfection)
- Sequence (F6V4I7 29-408): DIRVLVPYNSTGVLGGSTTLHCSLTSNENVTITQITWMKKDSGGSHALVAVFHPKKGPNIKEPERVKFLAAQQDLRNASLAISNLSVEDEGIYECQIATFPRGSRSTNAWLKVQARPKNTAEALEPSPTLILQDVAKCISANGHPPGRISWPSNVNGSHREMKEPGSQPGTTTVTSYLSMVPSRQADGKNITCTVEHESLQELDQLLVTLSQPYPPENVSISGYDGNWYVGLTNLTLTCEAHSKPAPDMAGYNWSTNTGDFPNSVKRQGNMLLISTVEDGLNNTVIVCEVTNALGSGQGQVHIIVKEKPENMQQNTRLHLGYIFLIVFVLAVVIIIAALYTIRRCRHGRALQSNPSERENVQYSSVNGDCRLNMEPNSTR
- measurementDescription: Blocking assay, mouse PVR protein binding to CHOK1-mTIGIT cells
- experimentalConditions: concentration gradient; read-out: IC50, blocking mouse TIGIT/PVR (mPVR binding)
pIC50: −log10 of the molar value.
measuredAttribute: pIC50

[in] Entry CC1=C(C(=O)OC(C)C)C(c2cccc([N+](=O)[O-])c2)C(C(=O)OC2CN(C(c3ccccc3)c3ccccc3)C2)=C(N)N1 (stereo not shown) has what pIC50?
[out] ~4.09
